src = the supplement of paper PMC8149375

System: TK-10
Assay: GI50 of drug in presence of dasatinib; higher = less potent
Conditions: treatment: drug + dasatinib (fixed dose, not stated); 5 days
Labelling field: enter fulfilled if recorded GI50 of drug is less than 700 nM. Enter not fulfilled if it equals or exceeds that cut-off.

# COMPOUND, SYSTEM UNDER TEST, ASSIGNED CLASS
rows = [
    ("C[C@@H]1CCN(C(=O)CC#N)C[C@@H]1N(C)c1ncnc2[nH]ccc12 + Cc1nc(Nc2ncc(C(=O)Nc3c(C)cccc3Cl)s2)cc(N2CCN(CCO)CC2)n1", "TK-10", "not fulfilled"),
    ("Nc1cccc2c1CN(C1CCC(=O)NC1=O)C2=O (stereo not drawn) [Lenalidomide (Revlimid)] + Cc1nc(Nc2ncc(C(=O)Nc3c(C)cccc3Cl)s2)cc(N2CCN(CCO)CC2)n1", "TK-10", "not fulfilled"),
    ("O=C1Nc2ccccc2/C1=C1/Nc2ccccc2C1=O [Indirubin] + Cc1nc(Nc2ncc(C(=O)Nc3c(C)cccc3Cl)s2)cc(N2CCN(CCO)CC2)n1", "TK-10", "not fulfilled"),
    ("Nc1cccc(-c2cc3c(Oc4cccc(O)c4)ncnc3[nH]2)c1 [TWS119] + Cc1nc(Nc2ncc(C(=O)Nc3c(C)cccc3Cl)s2)cc(N2CCN(CCO)CC2)n1", "TK-10", "not fulfilled"),
    ("Cc1c(NC(=O)OC[C@@H]2COCCN2)cn2ncnc(Nc3ccc4c(cnn4Cc4cccc(F)c4)c3)c12.Cl + Cc1nc(Nc2ncc(C(=O)Nc3c(C)cccc3Cl)s2)cc(N2CCN(CCO)CC2)n1", "TK-10", "not fulfilled"),
    ("Cc1nc(Nc2ncc(C(=O)Nc3c(C)cccc3Cl)s2)cc(N2CCN(CCO)CC2)n1 + Cc1nc(Nc2ncc(C(=O)Nc3c(C)cccc3Cl)s2)cc(N2CCN(CCO)CC2)n1", "TK-10", "fulfilled"),
    ("Cc1cccc(-c2nc(C(C)(C)C)[nH]c2-c2ccc3nccnc3c2)n1 + Cc1nc(Nc2ncc(C(=O)Nc3c(C)cccc3Cl)s2)cc(N2CCN(CCO)CC2)n1", "TK-10", "not fulfilled"),
    ("CC(C)c1ccccc1Cc1cc(C(=O)Nc2ccc(S(=O)(=O)c3ccccc3C(C)(C)C)cc2)c(O)c(O)c1O [TW-37] + Cc1nc(Nc2ncc(C(=O)Nc3c(C)cccc3Cl)s2)cc(N2CCN(CCO)CC2)n1", "TK-10", "not fulfilled"),
    ("CCOc1cc2ncc(C#N)c(Nc3ccc(OCc4ccccn4)c(Cl)c3)c2cc1NC(=O)/C=C/CN(C)C [Neratinib (HKI-272)] + Cc1nc(Nc2ncc(C(=O)Nc3c(C)cccc3Cl)s2)cc(N2CCN(CCO)CC2)n1", "TK-10", "fulfilled"),
    ("COc1cc2c(Nc3ccc(NC(=O)c4ccccc4)cc3)ncnc2cc1OCCCN1CCOCC1 + Cc1nc(Nc2ncc(C(=O)Nc3c(C)cccc3Cl)s2)cc(N2CCN(CCO)CC2)n1", "TK-10", "not fulfilled"),
    ("Cc1cc(Nc2cc(N3CCN(C)CC3)nc(Sc3ccc(NC(=O)C4CC4)cc3)n2)n[nH]1 [VX-680 (MK-0457, Tozasertib)] + Cc1nc(Nc2ncc(C(=O)Nc3c(C)cccc3Cl)s2)cc(N2CCN(CCO)CC2)n1", "TK-10", "not fulfilled"),
    ("C=CC(=O)Nc1cc2c(Nc3ccc(F)c(Cl)c3)ncnc2cc1OCCCN1CCOCC1 [CI-1033 (Canertinib)] + Cc1nc(Nc2ncc(C(=O)Nc3c(C)cccc3Cl)s2)cc(N2CCN(CCO)CC2)n1", "TK-10", "fulfilled"),
    ("COCCOc1ccc2c(c1)ncn2-c1ccc2cccc(N3CCC(N)CC3)c2n1 + Cc1nc(Nc2ncc(C(=O)Nc3c(C)cccc3Cl)s2)cc(N2CCN(CCO)CC2)n1", "TK-10", "not fulfilled"),
    ("CNC(=O)CN1CCC(Oc2cc3c(Nc4cccc(Cl)c4F)ncnc3cc2OC)CC1 [AZD8931] + Cc1nc(Nc2ncc(C(=O)Nc3c(C)cccc3Cl)s2)cc(N2CCN(CCO)CC2)n1", "TK-10", "fulfilled"),
    ("NC(=O)c1ccc(-c2nc(-c3ccc4c(c3)OCO4)c(-c3ccccn3)[nH]2)cc1 + Cc1nc(Nc2ncc(C(=O)Nc3c(C)cccc3Cl)s2)cc(N2CCN(CCO)CC2)n1", "TK-10", "not fulfilled"),
    ("COc1cc2ncnc(Nc3cccc(Cl)c3)c2cc1OC [AG-1478 (Tyrphostin AG-1478)] + Cc1nc(Nc2ncc(C(=O)Nc3c(C)cccc3Cl)s2)cc(N2CCN(CCO)CC2)n1", "TK-10", "not fulfilled"),
    ("Cn1cc(-c2ccc3ncc(Cc4ccc5ncccc5c4)n3n2)cn1 [NVP-BVU972] + Cc1nc(Nc2ncc(C(=O)Nc3c(C)cccc3Cl)s2)cc(N2CCN(CCO)CC2)n1", "TK-10", "not fulfilled"),
    ("CN(c1ncccc1CNc1nc(Nc2ccc3c(c2)CC(=O)N3)ncc1C(F)(F)F)S(C)(=O)=O.O=S(=O)(O)c1ccccc1 + Cc1nc(Nc2ncc(C(=O)Nc3c(C)cccc3Cl)s2)cc(N2CCN(CCO)CC2)n1", "TK-10", "not fulfilled"),
]
